Listed below: glycan array binding signal (z-score) values for each entry.
Assayed system: Gal(b1-4)GlcNAc(b1-2)[Gal(b1-4)GlcNAc(b1-6)]Man(a1-6)[Gal(b1-4)GlcNAc(b1-2)Man(a1-3)]Man(b1-4)GlcNAc(b1-4)GlcNAc
Assay protocol: glycan array binding signal (z-score within array); higher = stronger binding
Stated conditions: glycan notation: IUPAC condensed, linker removed
Only a selection was taken, and the strongest signals are over-represented in it overall.
Quantity kind: glycan array binding signal (z-score)

>>> result("LgFlo1 (Saccharomyces pastorianus), B3IUA8 (protein) SGSTQACLPVGSRKNGMNVNFYKYSLQDSTTYSDPQYMAYKYSDTKKLGSVSGQTHLSIYYGPNTAFWNTASWSSDLFGFYTTPTNVTVEMTGYFLPPQTGSYTFKFATVDDSAILSVGGSIAFECCAQEQPPITSTDFTINGIKPWDAATPTDIKGSTYMYAGYYYPIKIVYSNAKALARLPVSVVLPDGTEVNDDFEGYVYSFDDDLSQSNCTIPDPSKHTTS")
0.549
>>> result("CCL1 (Coprinopsis cinerea) (protein) MDTQAKPPAGRYVIYNRVLSPNGEKLALTYPGYQREALTLTPLHHSANQIWILNNWDATTSSLTPETARNTQVGWGSGNVPIVLPPGNYVWTLASSAGGYIIQDGGKTVYWNAGEAVANTKVSIGGDNGLQARWIFERV")
-0.131
>>> result("DC-Sign-R (Homo sapiens), Q9H2X3 (protein) MSDSKEPRVQQLGLLEEDPTTSGIRLFPRDFQFQQIHGHKSSTGCLGHGALVLQLLSFMLLAGVLVAILVQVSKVPSSLSQEQSEQDAIYQNLTQLKAAVGELSEKSKLQEIYQELTQLKAAVGELPEKSKLQEIYQELTRLKAAVGELPEKSKLQEIYQELTRLKAAVGELPEKSKLQEIYQELTRLKAAVGELPEKSKLQEIYQELTELKAAVGELPEKSKLQEIYQELTQLKAAVGELPDQSKQQQIYQELTDLKTAFERLCRHCPKDWTFFQGNCYFMSNSQRNWHDSVTACQEVRAQLVVIKTAEEQNFLQLQTSRSNRFSWMGLSDLNQEGTWQWVDGSPLSPSFQRYWNSGEPNNSGNEDCAEFSGSGWNDNRCDVDNYWICKKPAACFRDE")
-0.33
>>> result("EUL D1A first (Oryza sativa) (protein) MFGFGHHHNQAPAAPSDPNQIFKIFCRANENYCLTVRDSAVVLAPVNPKDEHQHWFKDMRFSTKVKDGEGMPAFALVNKATGLAVKHSLGQSHPVKLVPFNPEYEDASVLWTESKDVGKGFRCIRMVNNTRLNLDAFHGDKDHGGVRDGTTVVLWEWCKGDNQSWKILPWGPEAHSSSPGAATILEQKLISEEDLNSAVDHHHHHH")
-1.05

Every entry's value here was drawn from the supplement of paper PMC8728848.
